Just for reference, ChEMBL document CHEMBL3784947 is where these values come from.

target: Peroxisome proliferator-activated receptor gamma (Homo sapiens); experiment: Agonist activity at PPAR gamma (unknown origin) transfected in HEK293 cells at 0.1 to 100 uM after 24 hrs by DR-1 luciferase reporter gene assay; format: cell-based
The source made the active and inactive calls. No cut-off for these calls is given here.
A correct response names exactly one class from active, inactive

How was CCOC(=O)CCO classified in this test?
active

Could you check what this test reported for O=P(O)(O)CCO ?
inactive

Called result for CCOP(=O)(CCO)OCC
inactive

For this compound, state the assay outcome: CCOP(=O)(O)CCO
inactive

---

target: Peroxisome proliferator-activated receptor delta (Homo sapiens); experiment: Agonist activity at human PPAR delta by cell based cotransfection assay
Sequence (Q03181 whole entry): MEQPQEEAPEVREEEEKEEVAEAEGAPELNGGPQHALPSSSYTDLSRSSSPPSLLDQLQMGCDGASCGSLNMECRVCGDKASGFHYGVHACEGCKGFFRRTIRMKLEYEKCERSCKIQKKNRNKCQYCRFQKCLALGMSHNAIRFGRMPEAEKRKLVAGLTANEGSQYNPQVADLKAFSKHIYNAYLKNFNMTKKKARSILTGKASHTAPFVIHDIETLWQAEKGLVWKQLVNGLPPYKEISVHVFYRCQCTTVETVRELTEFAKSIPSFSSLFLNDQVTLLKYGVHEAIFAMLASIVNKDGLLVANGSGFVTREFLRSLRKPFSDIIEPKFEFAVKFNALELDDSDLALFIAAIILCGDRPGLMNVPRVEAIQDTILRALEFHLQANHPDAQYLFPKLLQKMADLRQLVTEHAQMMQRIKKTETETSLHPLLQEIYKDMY
The entries below come with measured EC50 values attached.

O=P(O)(OCO)OCCC#CC#CCCCCCC/C=C/I > 10 nM

Here is the next item to consider.
GET /values?readout=EC50&item= O=P(O)(CCO)OCCC#CC#CCCCCCC/C=C/I
23.7 nM
